Biological target: recombinant mouse LPLA2 (PLA2G15) (Mus musculus, UniProt Q8VEB4)
Construct: purchased Proteos Inc. (Kalamazoo, MI)
Sequence (Q8VEB4 34-412): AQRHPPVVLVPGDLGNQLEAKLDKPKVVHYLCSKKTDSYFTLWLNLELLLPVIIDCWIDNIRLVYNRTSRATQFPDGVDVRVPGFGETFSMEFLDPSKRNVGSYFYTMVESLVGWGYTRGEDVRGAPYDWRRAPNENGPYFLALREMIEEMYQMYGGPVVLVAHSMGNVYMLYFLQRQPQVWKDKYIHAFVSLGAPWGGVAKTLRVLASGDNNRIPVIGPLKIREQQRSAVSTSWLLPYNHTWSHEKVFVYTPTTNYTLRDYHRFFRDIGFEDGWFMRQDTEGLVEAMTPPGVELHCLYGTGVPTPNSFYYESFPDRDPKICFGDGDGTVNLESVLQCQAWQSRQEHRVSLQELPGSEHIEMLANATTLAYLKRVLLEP
Experiment: Transacylase activity of LPLA2 (1-O-acyl-N-acetylsphingosine synthase, cell-free liposome assay)
Type: biochemical
Conditions: 1-O-acyl N-acetylsphingosine synthase activity, pH 4.5, DOPC/sulfatide liposomes; read-out: LPLA2 IC50
QUANTITY KIND: pIC50
pIC50 here is simply -log10 of the concentration when that concentration is written in mol/L.

Record excerpt, results attached:
COMPOUND: CCN(CC)CCOC(=O)C(c1ccccc1)C1CCCCC1 (stereo not drawn) [Drofenine, hexahydroadiphenine]
VALUE MEASURED: 5.14
--
COMPOUND: COc1cc2nc(N3CCN(C(=O)c4ccco4)C4CCCCC43)nc(N)c2cc1OC (stereo not drawn)
VALUE MEASURED: 4.51
--
COMPOUND: CN(C)CCCC1(c2ccc(F)cc2)OCc2cc(C#N)ccc21 (stereo not drawn)
VALUE MEASURED: 4.71
--
COMPOUND: CC(C)N=c1cc2n(-c3ccc(Cl)cc3)c3ccccc3nc-2cc1Nc1ccc(Cl)cc1
VALUE MEASURED: 4.97
--
COMPOUND: O=c1[nH]c2ccccc2n1C1CCN(CCCC(c2ccc(F)cc2)c2ccc(F)cc2)CC1 [Pimozide]
VALUE MEASURED: 4.97

Note pIC50 for the compound shown: `CNCCCN1c2ccccc2CCc2ccccc21`
4.59

* * *

compounds and their reported pIC50
Molecular target: recombinant mouse LPLA2 (PLA2G15) (Mus musculus, UniProt Q8VEB4)
Construct: purchased Proteos Inc. (Kalamazoo, MI)
Experiment: Transacylase activity of LPLA2 (1-O-acyl-N-acetylsphingosine synthase, cell-free liposome assay)
Assay type: biochemical
Settings: 1-O-acyl N-acetylsphingosine synthase activity, pH 4.5, DOPC/sulfatide liposomes; read-out: LPLA2 IC50
pIC50 here is simply -log10 of the concentration when that concentration is written in mol/L.

Record excerpt, results attached:
COMPOUND: O=C(O)c1ccccc1Nc1cccc(C(F)(F)F)c1
QUANTITY KIND: pIC50
VALUE MEASURED: 3.75
//
COMPOUND: C=C[C@H]1C[N@@]2CC[C@H]1C[C@H]2[C@H](O)c1ccnc2ccc(OC)cc12
QUANTITY KIND: pIC50
VALUE MEASURED: 3.79
//
COMPOUND: CCCOc1ccc(C(=O)OCCN(CC)CC)cc1N
QUANTITY KIND: pIC50
VALUE MEASURED: 2.61
//
COMPOUND: CC(CN1c2ccccc2Sc2ccccc21)N(C)C (stereo not drawn)
QUANTITY KIND: pIC50
VALUE MEASURED: 4.39
//
COMPOUND: CCN(CCCc1ccccc1)CCCc1ccccc1
QUANTITY KIND: pIC50
VALUE MEASURED: 4.40

Note pIC50 for the compound shown: `C[C@]12C[C@H](O)[C@H]3[C@@H](CCC4=CC(=O)CC[C@@]43C)[C@@H]1CC[C@@H]2C(=O)CO`
3.79
